SYSTEM NAME: CYP1A2 (Homo sapiens, UniProt P05177)
Sequence (P05177 1-516): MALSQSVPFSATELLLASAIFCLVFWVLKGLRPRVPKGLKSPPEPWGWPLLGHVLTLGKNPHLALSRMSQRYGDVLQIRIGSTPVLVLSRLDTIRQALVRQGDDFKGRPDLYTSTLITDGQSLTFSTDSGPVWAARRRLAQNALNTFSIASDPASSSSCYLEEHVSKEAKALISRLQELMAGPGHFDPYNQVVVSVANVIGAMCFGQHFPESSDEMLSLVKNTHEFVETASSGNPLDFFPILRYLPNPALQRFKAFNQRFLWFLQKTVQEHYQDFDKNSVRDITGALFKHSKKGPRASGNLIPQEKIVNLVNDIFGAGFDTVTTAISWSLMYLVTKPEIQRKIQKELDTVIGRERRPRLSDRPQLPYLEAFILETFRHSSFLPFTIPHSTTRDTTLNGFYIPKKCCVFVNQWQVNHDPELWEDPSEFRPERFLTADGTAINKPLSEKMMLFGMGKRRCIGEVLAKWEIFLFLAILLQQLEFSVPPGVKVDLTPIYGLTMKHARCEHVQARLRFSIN
METHOD DESCRIPTION: biochemical
pIC50: −log10 of the molar value.
PARAMETER: pIC50

Task item: Bench note: what pIC50 did O=C(NCc1cnc(C(F)(F)F)s1)c1ccc2c(c1)NC(=O)c1ccccc1S2(=O)=O [ABI-H0731] show?
Reply: < 4.00

====

Tested on: HBV
METHOD DESCRIPTION: HBV infection of primary human hepatocytes (PHHs)
Type: cell-based
TEST SETTINGS: Hepatitis B virus, Hepatocyte; PHH; total intracellular viral DNA; read-out: Mean EC50, viral DNA
Items are presented alongside their recorded EC50.

{"COMPOUND": "O=C(NCc1cnc(C(F)(F)F)s1)c1ccc2c(c1)NC(=O)c1ccccc1S2(=O)=O", "PARAMETER": "EC50", "ASSAY RESULT": "0.154 µM"}
{"COMPOUND": "C=C1[C@H](CO)[C@@H](O)C[C@@H]1n1cnc2c(=O)[nH]c(N)nc21", "PARAMETER": "EC50", "ASSAY RESULT": "< 0.0001 µM"}
{"COMPOUND": "O=C(Nc1cc(F)c(F)c(F)c1)c1ccc(F)c(S(=O)(=O)N2CCC(O)CC2)c1", "PARAMETER": "EC50", "ASSAY RESULT": "1.68 µM"}

Task item: Bench note: what EC50 did CCOC(=O)C1=C(CN2CCOCC2)NC(c2nccs2)=NC1c1ccc(F)cc1Br (stereo not shown) show?
Reply: 1.94 µM

====

METHOD DESCRIPTION: in vivo
TEST SETTINGS: male, beagle, dog, iv, 2 mg/kg
PARAMETER: Vd (L/kg)
Could you give me the number in L/kg? Just the number is fine.

Task item: Bench note: what Vd did O=C(NCc1cnc(C(F)(F)F)s1)c1ccc2c(c1)NC(=O)c1ccccc1S2(=O)=O show?
Reply: 1.56

====

METHOD DESCRIPTION: in vivo
TEST SETTINGS: male, Sprague-Dawley, rat, iv, 1 mg/kg
Protocol: The same solution formulation was administered per os (p.o.) in the same species to determine oral bioavailability. Pharmacokinetic studies were performed at Wuxi (Shanghai, China) for studies in male mouse, rat, and cynomolgus monkey and at Sai (Pune, India) for studies in male dog. For all oral studies, the formulation was administered in the fasted state (food removed at least 12 h prior to dosing) to groups of 3 per arm.
PARAMETER: AUC(0-inf) (ng·h/mL)
Could you give me the number in ng·h/mL? Just the number is fine.

Task item: Bench note: what AUC(0-inf) did O=C(NCc1cnc(C(F)(F)F)s1)c1ccc2c(c1)NC(=O)c1ccccc1S2(=O)=O show?
Reply: 1670

# credit: paper PMC7577125
